// provenance: PubChem BioAssay (NCI)

# Assay Summary: NCI Yeast Anticancer Drug Screen. Data for the cln2 rad14 strain (AID 165);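 note: 0% = growth equal to vehicle treated cultures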
# Cond: S. cerevisiae cln2 rad14 strain, at 50.0 µM, stronger effect = higher value
# Procedure: Growth inhibition of yeast strains with defined genetic alterations is measured as a screen for potential anti-cancer activity. Selected strains with alterations in DNA damage repair or cell cycle control were exposed to compounds and growth inhibition was measured relative to vehicle treated controls. The strain used in this assay is cln2 rad14
The panel holds about 79,000 compounds, 15% with a hit somewhere; the sample as a whole holds those more often.
Test Readout: growth inhibition (%)

> print(dat)
                                    molecule       test.readout  measured.result
 1                          CCOC(=O)CCC(C)=O  growth inhibition             20.5
 2  CC(NC(=O)NC(C)(C)C)c1ccccc1 (stereo not drawn)  growth inhibition              -37
 3                 CCCCCCCCCCOC(=O)c1ccccc1O  growth inhibition             -111
 4  O=C(Nc1ccccc1[N+](=O)[O-])Oc1ccc(-c2ccccc2)cc1  growth inhibition            -7.65
 5                 CCCCCCCCNc1ncnc2[nH]ncc12  growth inhibition              6.5
 6            CC(C)(C)CC(C)(C)NCc1ccc(Cl)cc1  growth inhibition             40.2
 7                   O=C(c1ccccc1CO)N1CCCCC1  growth inhibition              -69
 8  CCN(CCO)CC(O)Cn1cnc2c(N)ncnc21 (stereo not drawn)  growth inhibition             26.6
 9  O=C(O)/C=C/C(O)C1CCCCC1 (stereo not drawn)  growth inhibition            -23.1
10  COc1cc2c(cc1N)-c1ccc(N)cc1C2O (stereo not drawn)  growth inhibition             17.3
11                          Cc1cc(O)oc(=O)c1  growth inhibition            -44.4
12  COc1ccc([N+](=O)[O-])c(C(OC(C)=O)OC(C)=O)c1OC(C)=O  growth inhibition                9
13      COc1cc2c(c([N+](=O)[O-])c1)NC(=O)CS2  growth inhibition             -4.5

====

# Assay Summary: NCI Yeast Anticancer Drug Screen. Data for the bub3 strain (AID 167)
# Cond: S. cerevisiae bub3 mutant strain, at 50.0 µM, stronger effect = higher value
Compounds without any hit were thinned out: in the full panel of roughly 79,000, 15% have a hit.
Each entry below lists one item and its recorded growth inhibition value.
Test Readout: growth inhibition (%)

> print(dat)
                                    molecule  measured.result
 1            CC(O)C1CC1 (centres undefined)             -2.2
 2  O=C(NN1C(=O)C(Cl)C1c1cccc(Cl)c1)c1ccccc1O (centres undefined)            -40.2
 3  Nc1ccc(C(=O)CC(=O)c2cccc([N+](=O)[O-])c2)cc1             27.4
 4      COc1cc2c(c([N+](=O)[O-])c1)NC(=O)CS2             0.95
 5  CCCCOC(=O)/C=C/C(=O)N1CCN(C(=O)/C=C/C(=O)OCCCC)C(C)C1 (centres undefined)             24.9
 6  N#C/C(=C/NC(=S)Nc1ccc(S(N)(=O)=O)cc1)C(N)=O            -20.4
 7  COc1cc2c(c(OC)c1OC)-c1ccc(OC)c(=O)cc1C(NC(=O)c1ccc(N=[N+]=[N-])cc1)CC2 (centres undefined)             -4.6
 8  CCN(CC)CCn1[nH]c2c3ccc(=O)cc3sc3c(NCCN)ccc1c32              2.5
 9  O=C(O)c1cc(N2C(=O)c3ccc4c5ccc6c7c(ccc(c8ccc(c3c48)C2=O)c75)C(=O)N(c2ccc(O)c(C(=O)O)c2)C6=O)ccc1O             1.65
10  COc1c2c(c(Cc3c4c(c(OC)c5c3OCO5)OC(C)C4)c3c1OCO3)CC(C)O2 (centres undefined)            -10.1
11                                O=C(O)CCBr              6.5
12  O=C(O)c1ccc(C(=O)c2ccccc2C(=O)O)cc1C(=O)O            -23.1
13  O=c1/c(=C/c2ccc(Cl)cc2)sc2nc(-c3ccccc3)nn12            -12.8
14   O=C(O)Cn1ccc(=O)c2c([N+](=O)[O-])cccc21             8.55
15  CCOC(=O)c1cnc(NCCCCCCNc2ncc(C(=O)OCC)c(=O)[nH]2)[nH]c1=O             -3.1
16  CCCCCCCCC(=O)O (tested in a mixture with another compound)             2.85
17                            C=CCOC(C)OCC=C             13.3
18  Cc1cc(C)nc(NS(=O)(=O)c2ccc(NC(=O)C(Cl)(Cl)Cl)cc2)n1              -42
19  CCCCNC(C(=O)c1ccc(N(C)C)cc1)c1ccccc1 (centres undefined)             2.95
20              Cn1ncc2c(=S)[nH]c(=S)[nH]c21              2.3
21                       CCCCCOC(=O)c1cccnc1              0.7
22          Cc1ccc(N)c(C(=O)Nc2ccc(Br)cc2)c1            -17.6
23  Cc1ccccc1-n1c(C)nc2cc(NCC(=O)c3ccccc3)ccc2c1=O             -1.6
24  CCCCCCCCCCCCCCCCS(=O)(=O)N/N=C(/c1ccccc1Cl)N1CCOCC1            -22.6
